test: log P determination by HPLC on reversed-phase column (C 18), EEC directive 79/831 Annex V.A8; assay type: physicochemical; settings: reversed-phase HPLC column (C 18), pH 2.3, pH 2.3 (marked a), 0.1% aqueous phosphoric acid/acetonitrile, 43° C.
assay.endpoint: chromatographic logP

{"columns": ["molecule", "endpoint.result"],
 "data": [
  ["O=C(Nc1ccc(OC(F)(F)F)cc1)[C@H]1CC(c2c(F)cccc2F)=NC1c1ccc(-c2ccc(OC(F)(F)F)cc2)cc1 (stereo partly shown)", 4.87],
  ["CCC(C)OC(=O)[C@H]1CC(c2c(F)cccc2F)=NC1c1ccc(-c2ccc(OC(F)(F)F)cc2)cc1 (stereo partly shown)", 5.4],
  ["CC(C)[C@@H](C)OC(=O)[C@H]1CC(c2c(F)cccc2F)=NC1c1ccc(-c2ccc(OC(F)(F)F)cc2)cc1 (stereo partly shown)", 5.65],
  ["O=C(OCc1ccoc1)[C@H]1CC(c2c(F)cccc2F)=NC1c1ccc(-c2ccc(OC(F)(F)F)cc2)cc1 (stereo partly shown)", 4.87],
  ["N#CCCCOC(=O)[C@H]1CC(c2c(F)cccc2F)=NC1c1ccc(-c2ccc(OC(F)(F)F)cc2)cc1 (stereo partly shown)", 4.18],
  ["O=C(OCc1ccsc1)[C@H]1CC(c2c(F)cccc2F)=NC1c1ccc(-c2ccc(OC(F)(F)F)cc2)cc1 (stereo partly shown)", 5.14],
  ["COC(=O)[C@H](C)COC(=O)[C@H]1CC(c2c(F)cccc2F)=NC1c1ccc(-c2ccc(OC(F)(F)F)cc2)cc1 (stereo partly shown)", 4.67]
]}

The reported numbers originate from patent US6995185B2.
